molecules and their reported z-score
Assay details: DUSP6 inhibitors restoring Erk phosphorylation by chemical complementation, primary imaging in DUSP6-transfected HeLa (AID 609)
Experimental context: HeLa MKP-3 transfected, phospho-Erk imaging KS statistic; measured here: nuclear pErk red intensity z-score; at 10 µM; stronger effect = higher value; cells stimulated with TPA for 15 min
Recorded endpoint: z-score

>>> test_value("C=CCOc1ccc(/C(O)=C2\\C(=O)C(=O)N(CCN(C)C)C2c2cccs2)cc1 (stereo not drawn)")
0.318
>>> test_value("N#Cc1c(N)nc(SCC(=O)NCc2ccc3c(c2)OCO3)c(C#N)c1-c1cccs1")
-0.212
>>> test_value("COc1ccc2c(c1)c(C(=O)CN1CCOCC1)c(C)n2C")
1.79
>>> test_value("COc1ccc(CN(C#N)c2nc(SC)nc(N(C)C)n2)cc1")
0.357
>>> test_value("CCCCSc1nc(N)c(C#N)c(-c2cccs2)c1C#N")
-0.946
>>> test_value("CC(C)(C)NC(=O)/C=N/O")
0.222
>>> test_value("Cc1nc(N2CCN(C(=O)c3ccc(Cl)cc3)CC2)c(C#N)c2c1COC(C)(C)C2")
0.404
>>> test_value("O=C1c2ccccc2-c2onc3ccc(NCc4ccco4)c1c23")
0.692
>>> test_value("COc1cc(C2Nc3cccc4cccc(c34)N2)cc(OC)c1OC(C)=O")
0.407
>>> test_value("CCOC(=O)c1[nH]c2ccccc2c1NC(=O)CN(C)C")
-0.213
>>> test_value("O=C1c2ccccc2C(=O)N1c1ncccn1")
0.031
>>> test_value("Cc1nn(C)cc1/C=N/n1nnnc1N")
0.944
>>> test_value("CCCCC(CCC(=O)Nc1ccc(C(=O)OCC)cc1)C(=O)O (stereo not drawn)")
0.598
>>> test_value("CC(C)c1nc2n[nH]c(N)c2c2c1CCCC2")
-1.27
>>> test_value("CC(C(=O)N(C)C)N(C#N)c1nc(N(C)C)nc(N(C)C)n1 (stereo not drawn)")
0.8
>>> test_value("CCC(=O)Nc1cccc(-c2nnc(SCC(=O)NCc3ccco3)n2C)c1")
-1.13
>>> test_value("CCOC(=O)C1=C(C)OC(N)=C(C#N)C1c1cc2ccccc2nc1N1CCCCC1 (stereo not drawn)")
0.368
>>> test_value("COc1ccc(C2CC(c3ccc(C)cc3)Nc3nc(N)nn32)cc1 (stereo not drawn)")
-0.827
>>> test_value("COC(=O)COc1ccc(Oc2nc(SC)nc(N(C)C)n2)nn1")
-0.861
>>> test_value("O=C1CC(c2ccco2)CC(O)=C1C=NCCN1CCN(C2CC(=O)N(c3ccccc3)C2=O)CC1 (stereo not drawn)")
0.0438
>>> test_value("C#CC1CN(Cc2ccccc2)CC(C#C)N1C (stereo not drawn)")
1.32
>>> test_value("Cc1ccc(N2CC(C(=O)Nc3ccc(N(C)C)cc3)CC2=O)cc1C (stereo not drawn)")
1.15
>>> test_value("CCCOC(=O)CSC1=C(C#N)C(c2ccc3c(c2)OCO3)CC(=O)N1 (stereo not drawn)")
-1.26

###

compounds and their reported inhibition
Assay details: inhibitors of Sendai virus-induced IRF3 signaling, primary screen, TLR/RLR signaling modifier project, cell-based, Sendai virus stimulus, luciferase, 10K MLSCN set (AID 602276);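 also: firefly luciferase from ISG56 promoter only with Renilla not read in this screen; 0% = Sendai virus plus DMSO and 100% = medium plus DMSO without virus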
Experimental context: HEK293 RL24 IRF3 luciferase reporter, at 10 µM, stronger effect = higher value
Recorded endpoint: inhibition (%)

>>> test_value("CCOc1cc(C(=O)Nc2c3c(nn2C(C)(C)C)CS(=O)C3)cc(OCC)c1OCC (centres undefined)")
6.91
>>> test_value("Cc1cc2ccccn2c1C(=O)c1ccncc1")
11
>>> test_value("O=C(CSc1nc(-c2ccccc2)cs1)NCc1ccco1")
-27.5
>>> test_value("CCCc1cc(=O)oc2c(C)c3occ(C)c3cc12")
2.73
>>> test_value("O=C(CS(=O)(=O)c1cn(Cc2ccc(Cl)cc2)c2ccccc12)N1CCCC1")
15.4
>>> test_value("Cc1nnc(N(C)C(=O)Cc2ccc3c(c2)OCO3)s1")
21.5
>>> test_value("Cc1cccc2cc(CN(CCN3CCCC3)C(=O)NC3CCCCC3)c(=O)[nH]c12")
12.6
>>> test_value("CC1CCC(NC(=O)C2(C)CCC(=O)N2Cc2cccnc2)CC1 (centres undefined)")
1.39
>>> test_value("COc1ccc(-c2nnc(SCC(=O)Nc3ccc(Cl)cc3)n2C)cc1")
-16
>>> test_value("O=C(NCCSc1c[nH]c2ccccc12)c1ccc(Br)o1")
6.55
>>> test_value("CN(CC(=O)Nc1nccs1)S(=O)(=O)c1ccc(F)cc1")
-24.4
>>> test_value("CCOC(=O)c1c(C)n(OCc2ccccc2)c2ccc3c(no[n+]3[O-])c12")
2.55
>>> test_value("CCc1nnc(NC(=O)c2ccc(S(=O)(=O)N(CC(C)C)CC(C)C)cc2)o1")
8.12
>>> test_value("Cc1ccc(-c2cc3nc4c(c(=O)n3[nH]2)CCCC4)cc1")
-9.26
>>> test_value("CCOc1ccccc1C1C(C(=O)Nc2ccc(OC)cc2)=C(C)Nc2nc(CCCO)nn21 (centres undefined)")
-0.537
>>> test_value("CC1CCN(Cc2ccc(-c3nn[nH]n3)cc2)CC1")
15.7
>>> test_value("c1ccc(-c2ccc(-c3ccccn3)nn2)nc1")
7.62
>>> test_value("CCCCOCP(=O)(CCCC)COCCCC")
11.3
>>> test_value("CCOC(=O)c1c(C)oc2c1c(C(c1ccncc1)N1CCOCC1)c(O)c1ccccc12 (centres undefined)")
-6.32
>>> test_value("Cn1nnc2cc(C(=O)N3CCCCCC3)ccc21")
-1.25
>>> test_value("COc1cc(OC)c2c(c1)OC(c1ccc(OC)c(OC)c1)C(O)C2=O (centres undefined)")
10.3
>>> test_value("CC1CCCC(C)N1C(=O)COC(=O)c1ccc[nH]c1=O (centres undefined)")
16.7
>>> test_value("O=C(NCc1ccco1)c1cnc2n(c1=O)CCS2")
10
>>> test_value("CC(=O)N(C(C)=O)c1cccc2c(N(C(C)=O)C(C)=O)cccc12")
12.7

The origin of these recorded values is PubChem BioAssay.
